Data provenance: patent US20240043542A1

Here the recorded pEC50 is given for each entry.
Target: T1, rat B7-H4 on the cell surface (rat, UniProt Q501W4 25-257)
T1 construct: full-length, on transfected HEK293T cells
T1 sequence: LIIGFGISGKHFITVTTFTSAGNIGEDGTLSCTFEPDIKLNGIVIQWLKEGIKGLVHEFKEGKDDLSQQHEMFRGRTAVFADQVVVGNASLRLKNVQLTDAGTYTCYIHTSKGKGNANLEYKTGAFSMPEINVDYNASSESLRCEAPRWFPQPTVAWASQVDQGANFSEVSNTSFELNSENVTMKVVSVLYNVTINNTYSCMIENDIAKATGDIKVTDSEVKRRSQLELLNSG
Assay: flow cytometry, transfected 293 cells
The read-out pEC50 is expressed as -log10 of concentration in moles per litre.

Record excerpt, results attached:
| Binder | pEC50 |
| --- | --- |
| B7-H4 antibody 15465 (antibody, human IgG1, kappa, V domains shown, human IgG1/kappa) VH: QVQLQESGPGLVKPSQTLSLTCTVSGGSISSGGYYWSWIRQHPGKGLEWIGNIYYSGSTYYNPSLKSRVTISVDTSKNQFSLKLSSVTAADTAVYYCARESSTISADFDLWGRGTLVTVSS VL: DIQMTQSPSSVSASVGDRVTITCRASQGISRWLAWYQQKPGKAPKLLIYAASSLQSGVPSRFSGSGSGTDFTLTISSLQPEDFATYYCQQAHTFPYTFGGGTKVEIKR | 8.83 |
| B7-H4 antibody 20500 (antibody, human IgG1, kappa, V domains shown, human IgG1/kappa) VH: QLQLQESGPGLVKPSETLSLTCTVSGGSIKSGSHYWGWIRQPPGKGLEWIGNIYYSGSTYYNPSLRSRVTISVDTSKNQFSLKLSSVTAADTAVYYCAREGSYPNWFDPWGQGTLVTVSS VL: EIVMTQSPATLSVSPGERATLSCRASQSVSSNLAWYQQKPGQAPRLLIYGASTRATGIPARFSGSGSGTEFTLTISSLQSEDFAVYYCQQYHSFPFTFGGGTKVEIKR | 8.94 |
| B7-H4 antibody 20502.1 (antibody, human IgG1, kappa, V domains shown, human IgG1/kappa) VH: QLQLQESGPGLVKPSETLSLTCTVSGGSIKSGSYYWGWIRQPPGKGLEWIGNIYYSGSTYYNPSLKSRVTISVDTSKNQFSLKLSSVTAADTAVYYCAREGSYPNQFDPWGQGILVTVSS VL: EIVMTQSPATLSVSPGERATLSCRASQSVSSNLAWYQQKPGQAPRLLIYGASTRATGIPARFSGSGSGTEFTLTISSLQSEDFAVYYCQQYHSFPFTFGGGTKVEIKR | 8.90 |
| B7-H4 antibody 15461 (antibody, human IgG1, kappa, V domains shown, human IgG1/kappa) VH: QLQLQESGPGLVKPSETLSLTCTVSGGSISSSSYYWGWIRQPPGKGLEWIGNIYYSGSTYYNPSLKSRVTISVDTSKNQFSLKLSSVTAADTAVYYCAREGSYPNWFDPWGQGTLVTVSS VL: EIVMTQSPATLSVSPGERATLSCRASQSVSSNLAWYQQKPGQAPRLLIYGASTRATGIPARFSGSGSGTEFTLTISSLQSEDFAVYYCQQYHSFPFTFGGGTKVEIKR | 8.78 |

Shift focus to the following entry.
## Task pEC50 lookup needed for B7-H4 antibody 20501 (antibody, human IgG1, kappa, V domains shown, human IgG1/kappa) VH: QLQLQESGPGLVKPSETLSLTCTVSGGSIKSGSHYWGWIRQPPGKGLEWIGNIYYSGSTYYNPSLKSRVTISVDTSKNQFSLKLSSVTAADTAVYYCAREGSYPNWLDPWGQGTLVTVSS VL: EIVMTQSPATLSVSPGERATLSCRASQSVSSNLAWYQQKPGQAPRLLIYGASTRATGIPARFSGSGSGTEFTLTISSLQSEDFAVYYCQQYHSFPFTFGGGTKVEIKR , thanks.
## Result 8.94
